- Subject Of Test: CXCR3 Y60A (Homo sapiens, UniProt P49682, Y60A)
- Construct: expressed in transfected cells; host or cells: murine pre-B cell line L1.2, transient transfection
- Sequence (P49682 1-368 Y60A): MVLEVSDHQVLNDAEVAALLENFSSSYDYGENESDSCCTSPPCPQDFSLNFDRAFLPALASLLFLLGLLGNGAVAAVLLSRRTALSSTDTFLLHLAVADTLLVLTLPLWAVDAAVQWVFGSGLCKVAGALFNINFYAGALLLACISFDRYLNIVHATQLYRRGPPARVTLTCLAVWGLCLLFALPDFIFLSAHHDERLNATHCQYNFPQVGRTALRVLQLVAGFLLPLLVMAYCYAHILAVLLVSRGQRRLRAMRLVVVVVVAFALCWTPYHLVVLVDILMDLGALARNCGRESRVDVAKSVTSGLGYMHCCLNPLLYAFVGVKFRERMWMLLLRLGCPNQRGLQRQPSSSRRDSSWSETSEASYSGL
- Procedure Summary: Chemotaxis assay, L1.2 transfectants migrating to CXCL11
- Format: cell-based
- Measurement Conditions: 30 nM CXCL11, read-out: IC50 chemotaxis (mean ± SEM)
Readout: IC50 (µM)
Give the number; µM is assumed, so skip it.

Cc1ccc(-c2ccc3c(c2)C=C(C(=O)Nc2ccc(C[N+](C)(C)C4CCOCC4)cc2)CCC3)cc1.[Cl-] [TAK-779] has a reported IC50 of 10.2

* * *

- Subject Of Test: CXCR3 Y308A (Homo sapiens, UniProt P49682, Y308A)
- Construct: expressed in transfected cells; host or cells: murine pre-B cell line L1.2, transient transfection
- Procedure Summary: Whole-cell 125I-CXCL11 binding assay, L1.2 transfectants
- Measurement Conditions: Y308A, 0.1 nM 125I-CXCL11; read-out: IC50 ligand binding (mean ± SEM)
Readout: IC50 (µM)
Give the number; µM is assumed, so skip it.

Cc1ccc(-c2ccc3c(c2)C=C(C(=O)Nc2ccc(C[N+](C)(C)C4CCOCC4)cc2)CCC3)cc1.[Cl-] [TAK-779] has a reported IC50 of 14.2

* * *

- Subject Of Test: CXCR3 H202A (ECL2) (Homo sapiens, UniProt P49682, H202A)
- Construct: expressed in transfected cells; host or cells: murine pre-B cell line L1.2, transient transfection
- Sequence (P49682 1-368 H202A): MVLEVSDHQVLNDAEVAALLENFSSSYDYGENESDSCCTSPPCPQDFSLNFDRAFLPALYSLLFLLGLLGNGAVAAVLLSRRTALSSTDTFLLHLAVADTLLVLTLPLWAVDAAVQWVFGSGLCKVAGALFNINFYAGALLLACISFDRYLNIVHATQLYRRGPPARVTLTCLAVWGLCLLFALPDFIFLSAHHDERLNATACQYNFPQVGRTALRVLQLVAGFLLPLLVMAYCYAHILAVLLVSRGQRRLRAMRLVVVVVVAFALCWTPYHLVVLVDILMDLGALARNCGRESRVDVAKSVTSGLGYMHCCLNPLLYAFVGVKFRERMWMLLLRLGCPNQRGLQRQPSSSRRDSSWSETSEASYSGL
- Procedure Summary: Chemotaxis assay, L1.2 transfectants migrating to CXCL11
- Format: cell-based
- Measurement Conditions: H202A (ECL2), 30 nM CXCL11; read-out: IC50 chemotaxis (mean ± SEM)
Readout: IC50

GET /values?item= Cc1ccc(-c2ccc3c(c2)C=C(C(=O)Nc2ccc(C[N+](C)(C)C4CCOCC4)cc2)CCC3)cc1.[Cl-] &system= CXCR3 H202A (ECL2) (Homo sapiens, UniProt P49682, H202A) returns IC50: 32.7 µM
